# target-of-assay: recombinant soluble homotrimeric HA of A/Japan/305/57 (H2N2) (Influenza A virus A/Japan/305/1957 (H2N2))
# run-description: HA microarray, BCC supernatant
# study-conditions: remark: other sources report otherwise
Consider the following binders and their measured Trimeric HA Binding RLU readings.
Answer with a number only, understood to be in RLU.

Known Trimeric HA Binding RLU results, listed for orientation:
binder	unit-spec	Trimeric HA Binding RLU
TCN-553 (5261_C18) (antibody, V domains shown) VH: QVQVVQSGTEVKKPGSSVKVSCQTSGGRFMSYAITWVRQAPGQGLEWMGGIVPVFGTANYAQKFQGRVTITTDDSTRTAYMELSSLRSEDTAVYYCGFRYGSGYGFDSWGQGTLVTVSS VL: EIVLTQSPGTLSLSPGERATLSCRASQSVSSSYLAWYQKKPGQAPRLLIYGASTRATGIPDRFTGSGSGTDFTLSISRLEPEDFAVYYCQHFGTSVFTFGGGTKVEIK	RLU	25500
TCN-534 (5249_B02) (antibody, V domains shown) VH: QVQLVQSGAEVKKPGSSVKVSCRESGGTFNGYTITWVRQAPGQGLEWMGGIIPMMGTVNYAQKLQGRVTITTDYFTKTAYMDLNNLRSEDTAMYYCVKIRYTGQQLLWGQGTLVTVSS VL: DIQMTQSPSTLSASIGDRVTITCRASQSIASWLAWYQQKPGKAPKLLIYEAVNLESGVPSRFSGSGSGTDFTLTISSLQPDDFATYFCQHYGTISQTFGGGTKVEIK	RLU	50600
TCN-535 (5246_P19) (antibody, V domains shown) VH: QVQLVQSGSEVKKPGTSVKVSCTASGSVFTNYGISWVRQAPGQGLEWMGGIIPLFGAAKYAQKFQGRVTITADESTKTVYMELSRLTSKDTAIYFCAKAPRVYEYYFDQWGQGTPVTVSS VL: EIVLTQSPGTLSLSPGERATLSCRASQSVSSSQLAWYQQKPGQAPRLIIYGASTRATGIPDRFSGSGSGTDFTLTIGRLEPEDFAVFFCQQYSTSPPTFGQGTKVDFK	RLU	26100
TCN-539 (5056_A08) (antibody, V domains shown) VH: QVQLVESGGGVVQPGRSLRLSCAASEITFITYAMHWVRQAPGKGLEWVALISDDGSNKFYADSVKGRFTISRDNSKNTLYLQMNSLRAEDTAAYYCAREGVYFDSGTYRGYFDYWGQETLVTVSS VL: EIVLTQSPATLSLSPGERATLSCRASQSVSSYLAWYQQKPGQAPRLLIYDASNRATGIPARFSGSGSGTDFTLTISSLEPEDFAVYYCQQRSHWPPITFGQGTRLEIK	RLU	468

Looking for the measured Trimeric HA Binding RLU of TCN-540 (5060_F05) (antibody, V domains shown) VH: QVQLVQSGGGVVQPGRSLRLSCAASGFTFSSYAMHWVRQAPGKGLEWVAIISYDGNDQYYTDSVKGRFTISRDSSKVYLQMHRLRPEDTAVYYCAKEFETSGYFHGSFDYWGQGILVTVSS VL: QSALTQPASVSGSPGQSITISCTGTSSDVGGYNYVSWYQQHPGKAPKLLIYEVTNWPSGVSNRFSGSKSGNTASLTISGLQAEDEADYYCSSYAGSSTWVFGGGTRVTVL , can you help?
2970
